Value source: patent US20250092065A1

As shown below, each of these compounds has a reported IC50 value.
Test system: HTT mRNA
Test: RT-qPCR splicing assay, HTT mRNA canonical (CJ) and alternative (AJ) junction
Type: cell-based, human
Settings: Homo sapiens, HTT canonical junction mRNA, RT-qPCR; read-out: HTT CJ (decrease in CJ mRNA levels, IC50)
assay_readout: IC50

>>> measured("CC(C)N[C@H]1CCN(c2ccc3nc(-c4cc5cn(C)nc5c(F)c4O)ccc3n2)C1 (single isomer, unassigned)")
"< 0.1 µM"
>>> measured("Cc1c(O)c(-c2ncc3cc(N4C[C@H](C)N[C@@H](C)C4)ccc3n2)cc2cn(C)nc12")
"0.1 to 1 µM"
>>> measured("CN[C@@H]1CCN(c2ccc3nc(-c4cc5cn(C)nc5cc4O)ccc3n2)C1")
"< 0.1 µM"
>>> measured("Cc1nc2c(C)c(O)c(-c3ccc4nc(N5CC[C@H](NC(C)C)C5)ncc4n3)cc2o1")
"< 0.1 µM"
>>> measured("Cc1c(O)c(-c2ncc3nc([C@H]4CCNC4)ccc3n2)cc2cn(C)nc12")
"> 10 µM"
>>> measured("Cc1nc2c(C)c(O)c(-c3ccc4nc(N5CC[C@@H](NC(C)(C)C)C5)ccc4n3)cc2o1")
"< 0.1 µM"
>>> measured("CNC(=O)c1nc(-c2cc3cn(C)nc3c(F)c2O)nc2ccc(N3CC[C@@H](NC)C3)cc12")
"< 0.1 µM"
>>> measured("CNC(=O)c1nc(-c2cc3cn(C)nc3cc2O)nc2ccc(N3CCN[C@@H](C)C3)cc12")
"1 to 10 µM"
>>> measured("Cc1nc2c(C)c(O)c(-c3ccc4nc(N5CC[C@H](NC(C)(C)C)C5)ncc4n3)cc2o1")
"< 0.1 µM"
>>> measured("C[C@H]1C[C@H](c2ccc3nc(-c4cc5cn(C)nc5c(F)c4O)ccc3n2)CCN1 (single isomer, unassigned)")
"< 0.1 µM"
>>> measured("Cn1cc2nc(-c3ccc4nc(N5CCC(NC(C)(C)C)C5)ccc4n3)c(F)cc2n1 (stereo not shown)")
"1 to 10 µM"
>>> measured("Cn1cc2cc(-c3ccc4nc(N5CCC(NC6(CF)CC6)C5)ccc4n3)c(O)c(F)c2n1 (stereo in doubt) [Compound 357]")
"< 0.1 µM"
>>> measured("Cn1cc2cc(-c3ccc4nc(N5CCC56CCNC6)ccc4n3)c(O)cc2n1 (stereo not shown)")
"> 10 µM"
>>> measured("Cc1c(O)c(-c2nc(-c3nnc[nH]3)c3cc(N4CCNCC4)ccc3n2)cc2cn(C)nc12")
"1 to 10 µM"
>>> measured("Cn1cc2cc(-c3ccc4nc(N5C[C@H]6CC[C@@H](C5)N6)ccc4n3)c(O)cc2n1")
"1 to 10 µM"
>>> measured("Cc1nc2c(F)c(O)c(-c3ccc4nc(N5CCC(NC6CCC6)C5)ccc4n3)cc2o1 (stereo not shown)")
"< 0.1 µM"
>>> measured("Cc1nc2cc(O)c(-c3ccc4nc(N5CC[C@H](NC(C)(C)C)C5)ccc4n3)cc2o1")
"< 0.1 µM"
>>> measured("Cn1cc2cc(-c3ccc4nc(N5CCC(NC67CC(O)(C6)C7)C5)ccc4n3)c(O)cc2n1 (stereo not shown)")
"0.1 to 1 µM"
>>> measured("Cn1cc2cc(-c3ccc4nc(N5CCC(NC(C)(C)C)C5)ccc4n3)c(O)cc2n1 (stereo not shown)")
"< 0.1 µM"
>>> measured("CNC1CCN(c2ccc3nc(-c4cc5oc(C)nc5cc4O)ccc3n2)CC1")
"1 to 10 µM"
>>> measured("Cc1c(O)c(-c2ccc3nc(N4CC[C@H](N[C@H]5C[C@H](F)C5)C4)ccc3n2)cc2cn(C)nc12 (single isomer, unassigned)")
"< 0.1 µM"
>>> measured("Cn1cc2cc(-c3ccc4nc(N5CC[C@H](NC6(CF)CC6)C5)ccc4n3)c(O)cc2n1")
"< 0.1 µM"
>>> measured("Cc1cc2nc(-c3ccc4nc(N5CCC(NC(C)(C)C)C5)ccc4n3)cn2c(C)n1 (stereo not shown)")
"1 to 10 µM"
>>> measured("CN(C)C1CCN(c2ccc3nc(-c4cc5cn(C)nc5cc4O)ccc3n2)CC1")
"1 to 10 µM"
>>> measured("CC(=O)c1nc(-c2cc3cn(C)nc3c(F)c2O)nc2ccc(N3CCNCC3)cc12 [Compound 513, 2,2,2-trifluoroacetate]")
"1 to 10 µM"
